Test system: ORYSAT (Rice, Tebonnet)
Experiment: Preemergence herbicidal evaluation
Format: in vivo, Oryza sativa, (L.) Tebonnet
Conditions: Rate 0.1250 kg/ha; rated 4-5 weeks after treatment
We begin with a simple list: items and their reported Preemergence herbicidal rating ORYSAT.
Quick one: just the number, no unit, thanks!

Worked examples follow.
C[C@@H]1C[C@H](C)OC(c2nsc3cc(F)c(-n4c(=O)cc(C(F)(F)F)n(C)c4=O)cc23)O1 (some centres unmarked)    9.0
Cc1cccnc1-c1nsc2cc(F)c(N3C(=O)C4=C(CCCC4)C3=O)cc12    0.0

Short answer please: Preemergence herbicidal rating ORYSAT, ORYSAT (Rice, Tebonnet), entry CC1CC(C)(C)OC(c2nsc3ccc(-n4c(=O)cc(C(F)(F)F)n(C)c4=O)cc23)O1 (centres unmarked) 9.0

Query Cc1sccc1-c1nsc2ccc(-n3c(=O)cc(C(F)(F)F)n(C)c3=O)cc12 next 3.5

Cn1c(C(F)(F)F)cc(=O)n(-c2ccc3snc(C4OCCCS4)c3c2)c1=O (centres unmarked) ? 4.5

Try this compound next: Cc1cc(C)nc(-c2nsc3ccc(-n4c(=O)cc(C(F)(F)F)n(C)c4=O)cc23)n1 2.0

Do the same for Cc1cccnc1-c1nsc2cc(F)c(-n3c(=O)cc(C(F)(F)F)n(C)c3=O)cc12 please 8.0

And for Cn1c(C(F)(F)F)cc(=O)n(-c2ccc3snc(C4OCC(CO)O4)c3c2)c1=O (centres unmarked) ? 7.0

====

Measured Preemergence herbicidal rating ZEAMX, listed per entry for reference.
Test system: ZEAMX (Corn, Field)
Assay: Preemergence herbicidal evaluation
Assay type: in vivo, Zea mays, L.
Conditions: preemergence, rate 0.2500 kg/ha, rated 4-5 weeks after treatment
Response field accepts a number only; no unit should be typed.

Solved entries (count: 3):
Cn1c(C(F)(F)F)cc(=O)n(-c2ccc3snc(C4OCC(C[S+](C)[O-])O4)c3c2)c1=O (stereo not shown)    7.0
Cn1c(C(F)(F)F)cc(=O)n(-c2ccc3snc(-c4sccc4CO)c3c2)c1=O    3.0
Cn1c(C(F)(F)F)cc(=O)n(-c2ccc3snc(-c4nc5ccccc5[nH]c4=O)c3c2)c1=O    0.0

Need Preemergence herbicidal rating ZEAMX, item Cn1c(C(F)(F)F)cc(=O)n(-c2ccc3snc(-c4ccoc4)c3c2)c1=O 6.0

====

System: TRZAWR (Wheat, Winter, cv Riband)
Test: Preemergence herbicidal evaluation
Type: in vivo, Triticum aestivum
Conditions: Rate 0.1250 kg/ha; rated 4-5 weeks after treatment
From the text: Results of herbicide evaluation are expressed on a rating scale (0-9). The scale is based upon a visual observation of plant stand, vigor, malformation, size, chlorosis and overall plant appearance as compared with a control. […]
Reported Preemergence herbicidal rating TRZAWR values for a set of compounds
Just the number, please.

Illustrative cases are given below, each with its answer.
Cc1sccc1-c1nsc2ccc(-n3c(=O)cc(C(F)(F)F)n(C)c3=O)cc12    5.0
Cn1c(C(F)(F)F)cc(=O)n(-c2ccc3snc(C4OCC5(CO4)CO5)c3c2)c1=O (stereo not shown)    7.0
Cn1c(C(F)(F)F)cc(=O)n(-c2ccc3snc(-c4sccc4Cl)c3c2)c1=O    1.0

Okay, next one:
If you can, please state the reported Preemergence herbicidal rating TRZAWR value of Cc1cccnc1-c1nsc2cc(F)c(N3C(=O)C4=C(CCCC4)C3=O)cc12 . 0.0
